Each recorded value in this set is attributed to patent US20260033491A1.

Test system: Purpureocillium lilacinum spores
Test: Spore viability (germination rate) of Purpureocillium lilacinum spores dispersed in fluid and stored at 30° C.
Format: cell-based
Conditions: P. lilacinum spores in fluid, storage at 30° C., 51-55 d
Experimental Endpoint: spore viability [%] after 2 m (51-55 d) (%)
// note: answer is a bare numeric in %

Some compounds with known spore viability [%] after 2 m (51-55 d) results, for comparison:
Compound: CCCCCCCC/C=C\CCCCCCCC(=O)OCC(CC)CCCC (stereo not drawn) [Radia 7331, 2-Ethylhexyl oleate]
spore viability [%] after 2 m (51-55 d), %: 85.9

Compound: CC(C)OC(=O)CCCCC(=O)OC(C)C [Crodamol DA, Diisopropyl adipate]
spore viability [%] after 2 m (51-55 d), %: 68.2

Compound: CC(=O)OCC(COC(C)=O)OC(C)=O [Triacetin, Glycerin triacetate]
spore viability [%] after 2 m (51-55 d), %: 90.8

Compound: CCCCCCCC/C=C\CCCCCCCC(=O)OCC(CC)CCCC (stereo not drawn) [Radialube 7130, 2-Ethylhexyl oleate]
spore viability [%] after 2 m (51-55 d), %: 87.9

Compound: CC(C)CCCCCCOC(=O)C1CCCCC1C(=O)OCCCCCCC(C)C (stereo not drawn) [Agnique AE829]
spore viability [%] after 2 m (51-55 d), %: 89.8

From here, focus on the item given below.
[in] For the compound CCCCCCCCCCCC(=O)OCC(CC)CCCC (stereo not drawn) [Radia 7127, 2-Ethylhexyl laurate] , give its reported spore viability [%] after 2 m (51-55 d).
[out] 88.4
